Provide the recorded Plant response rating, Ragweed for the entries that follow.
# System: common ragweed
# procedure_summary: Test C pre-/postemergence herbicide test
# Type: in vivo, Ambrosia elatior
# Parameters: key: 0 = no effect, 100 = complete control
# measurement_setup: 125 g ai/ha; scale 0 (no effect) to 100 (complete control); visual, 12 to 14 days; preemergence
Give bare numbers.

# batch size: 4; output Plant response rating, Ragweed per entry
1. CCN(CC)C(=O)c1ccnc(NC(=O)c2cc(C(C)(C)C)nn2CC)c1 [Compound 153]
2. CCn1nc(C(C)(C)C)cc1C(=O)Nc1cccc(C(=O)NC2CC2)c1 [Compound 44]
3. CCNC(=O)c1cccc(NC(=O)c2cc(C(C)(C)C)nn2CCF)c1 [Compound 35]
4. CCn1nc(C(C)(C)C)cc1C(=O)Nc1cccc(C(=O)NCC2CC2)c1 [Compound 62]

Result:
1. 0
2. 30
3. 80
4. 20

----------
# Test system: wheat
# procedure_summary: Test B postemergence herbicide test
# Assay type: in vivo, Triticum aestivum
# Parameters: key: 0 = no effect, 100 = complete control
# measurement_setup: postemergence, 125 g ai/ha; visual rating, scale 0 (no effect) to 100 (complete control)
Assignment: determine reported Wheat plant response rating for the given compounds.
Give bare numbers.

chemical_string	assay_system	numeric_result
CCN(C)C(=O)c1ccc(F)c(NC(=O)c2cc(C(C)(C)C)nn2CC)n1	wheat	20
CCn1nc(C(C)(C)C)cc1C(=O)Nc1cc(C(=O)OC(C)(C)C)ccc1F	wheat	0
CCNC(=O)c1cc(NC(=O)c2cc(C(C)(C)C)nn2CC)c(F)cc1F	wheat	20
CC(=NO)c1cccc(NC(=O)c2cn(C(C)C)nc2C)c1	wheat	0
CCn1nc(C(C)(C)C)cc1C(=O)Nc1cc(C(=O)N(C)OC)ccc1F	wheat	10

Kindly give each listed record's Wheat plant response rating.
1. CCN1CCc2c(NC(=O)c3cc(C(C)(C)C)nn3CC)cccc2C1=O
2. CCc1nc(C(C)(C)C)sc1C(=O)Nc1cccc(C(=O)NCC2CC2)c1
3. CCNC(=O)c1cncc(NC(=O)c2cc(C(C)(C)C)nn2CC)c1
4. CCN(CC)C(=O)c1cccc(NC(=O)c2nn(C(C)(C)C)cc2Cl)c1

Result:
10
10
10
0

----------
# System: large crabgrass
# procedure_summary: Test A pre-/postemergence herbicide test
# Assay type: in vivo, Digitaria sanguinalis
# measurement_setup: Preemergence, 2000 g ai/ha; visual rating, 0 to 100 scale (0 no effect, 100 complete control)
Please go through the items and note down their Crabgrass, Large plant response rating.
Give bare numbers.

molecule	Crabgrass, Large plant response rating
CCc1nc(C(C)(C)C)sc1C(=O)Nc1cccc(C(=O)N(CC)CC)n1 [Compound 214]	65
CCNC(=O)c1cccc(NC(=O)c2cc(C(C)(C)C)nn2CC)n1 [Compound 144]	90
CC(=NO)c1cccc(NC(=O)c2cc(C(F)(F)F)nn2C)c1 [Compound 103]	55
C#CCNC(=O)c1cncc(NC(=O)c2cc(C(C)(C)C)nn2CC)n1 [Compound 289]	55
Cn1nc(C(C)(C)C)cc1C(=O)Nc1cccc(C#N)c1 [Compound 121]	75

Give one value of Crabgrass, Large plant response rating per listed molecule.
1. CCN(C(C)=O)C(=O)c1ccc(F)c(NC(=O)c2cc(C(C)(C)C)nn2CC)c1 [Compound 413]
2. C#CCNC(=O)c1cccc(NC(=O)c2sc(C(C)(C)C)nc2CC)c1 [Compound 319]
3. CCNC(=O)c1ccc(F)c(NC(=O)c2cc(C3(C)CC3)nn2CC)c1 [Compound 300]
4. CCc1nc(C(C)(C)C)sc1C(=O)Nc1cccc(C(=O)N(CC)CC)c1 [Compound 205]
5. CC(=O)c1cccc(NC(=O)c2cc(C(C)(C)C)nn2CCF)c1 [Compound 128]
6. CCNC(=O)c1cccc(NC(=O)c2nn(C3CCCC3)nc2CC)c1 [Compound 356]

Result:
1. 70
2. 100
3. 100
4. 95
5. 100
6. 20
